Listed here are compounds together with their documented pEC50.
target: Orexin receptor type 2 (Homo sapiens, UniProt O43614); test: Agonist activity at human OX2R expressed in human HEK293 cells co-transfected with human Galphaq assessed as accumulation of inositol phosphate by scintillation counter analysis
Bear in mind: pEC50 is minus log10 of a mol/L concentration; give just that figure.

Some compounds with recorded pEC50:
# compound, pEC50
records = [
    ("COCOC[C@H](Cc1ccc(C)cc1)n1c(=N)n(C(C)c2ccc(C)cc2)c2cccnc21 (stereo in doubt; 62c)", 6.03),
    ("COCCOC[C@H](Cc1ccc(C)cc1)n1c(=N)n(C(C)c2ccc(C)cc2)c2cccnc21 (stereo in doubt; 63c)", 6.47),
    ("Cc1ccc(C[C@@H](CNC(=O)CO)n2c(=N)n(C(c3ccc(C)cc3)C(C)C)c3ccccc32)cc1 (mixture of isomers)", 5.71),
    ("CCSC[C@H](Cc1ccc(C)cc1)n1c(=N)n(Cc2ccc(C)cc2)c2ccccc21", 5.40),
]

Could you now look at the following compound, please?
Q: Request the reported pEC50 associated with Cc1ccc(C[C@@H](C(=O)N2CC(C#N)C2)n2c(=N)n(C(C)c3ccc(C)cc3)c3ccccc32)cc1 (mixture of isomers)
A: 6.18

###

test: Ratio of AUC in mouse brain to plasma at 5 mg/kg,iv administration; type: ADME, organism-based; conditions: read-out: Ratio AUC
Listed here are compounds together with their documented Kp.
Number only, please.

# compound, Kp
records = [
    ("Cc1ccc(C[C@@H](CNC(=O)CO)n2c(=N)n(C(C)c3ccc(C)cc3)c3ccccc32)cc1 (stereo in doubt; 65c)", 0.27),
]

Q: Request the reported Kp associated with Cc1ccc(C[C@@H](C(=O)N2CC(C#N)C2)n2c(=N)n(C(C)c3ccc(C)cc3)c3ccccc32)cc1 (mixture of isomers)
A: 0.48

Q: Same again, this time with COCOC[C@H](Cc1ccc(C)cc1)n1c(=N)n(C(C)c2ccc(C)cc2)c2cccnc21 (stereo in doubt; 62c)
A: 2.49

Q: Same again, this time with COC[C@H](Cc1ccc(C)cc1)n1c(=N)n(C(c2ccc(C)cc2)C2CC2)c2ccccc21 (stereo in doubt; 61b)
A: 0.66

###

Biological target: Orexin receptor type 2 (Homo sapiens)
Sequence (O43614 whole entry): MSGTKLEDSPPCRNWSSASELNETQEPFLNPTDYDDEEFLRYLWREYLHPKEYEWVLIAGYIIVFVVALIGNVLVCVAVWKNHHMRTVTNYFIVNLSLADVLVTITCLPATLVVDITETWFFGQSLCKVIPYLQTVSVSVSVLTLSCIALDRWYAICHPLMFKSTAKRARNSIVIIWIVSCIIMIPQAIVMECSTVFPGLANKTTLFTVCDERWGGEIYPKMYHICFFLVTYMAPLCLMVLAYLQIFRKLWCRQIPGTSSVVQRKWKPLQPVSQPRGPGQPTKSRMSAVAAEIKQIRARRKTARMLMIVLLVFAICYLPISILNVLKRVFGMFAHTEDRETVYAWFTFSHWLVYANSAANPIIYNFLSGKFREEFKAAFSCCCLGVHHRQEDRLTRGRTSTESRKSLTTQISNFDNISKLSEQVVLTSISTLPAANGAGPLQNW
Experiment: Agonist activity at human OX2R expressed in human HEK293 cells co-transfected with human Galphaq assessed as accumulation of inositol phosphate by scintillation counter analysis
measurement.kind: EC50

Some compounds with recorded EC50:
# compound, EC50
data = [
    ("Cc1ccc(C[C@@H](CNC(=O)CO)n2c(=N)n(C(C)c3ccc(C)cc3)c3ccccc32)cc1 (mixture of isomers)", "0.661 µM"),
    ("COCOC[C@H](Cc1ccc(C)cc1)n1c(=N)n(C(C)c2ccc(C)cc2)c2cccnc21 (stereo in doubt; 62b)", "5.75 µM"),
    ("COC[C@H](Cc1ccc(C)cc1)n1c(=N)n(C(c2ccc(C)cc2)C2CCC2)c2ccccc21 (mixture of isomers)", "> 10 µM"),
    ("Cc1ccc(C[C@@H](CO)n2c(=N)n(Cc3ccc(C)cc3)c3ccc(C(F)(F)F)cc32)cc1", "> 10 µM"),
]

Q: Enter reported EC50 observed with Orexin receptor type 2 (Homo sapiens) for COC[C@H](Cc1ccc(C)cc1)n1c(=N)n(C(c2ccc(C)cc2)C2CC2)c2ccccc21 (stereo in doubt; 61b)
A: 0.603 µM

Q: Same again, this time with Cc1ccc(CC(CNC(=O)C(F)(F)F)n2c(=N)n(Cc3ccc(C)cc3)c3ccccc32)cc1 (racemic)
A: 6.61 µM

Q: Same again, this time with Cc1ccc(C[C@@H](C[S+](C)[O-])n2c(=N)n(Cc3ccc(C)cc3)c3ccccc32)cc1 (stereo partly drawn)
A: 7.08 µM

Q: Same again, this time with Cc1ccc(CC(CNC(=O)Cc2ncccn2)n2c(=N)n(Cc3ccc(C)cc3)c3ccccc32)cc1 (racemic)
A: > 10 µM
